The origin of these recorded values is paper PMC12389534.

// reported reduction in MDA brain content per item
- System: MDA
- assay: Brain MDA content (thiobarbituric acid method)
- Type: in vivo, rat
- Set-up: concentration or dose not given beside the values
- test.parameters: AlCl3-induced AD rats

smiles.data: N#Cc1ccc(N2CC(=O)Oc3sc4c(c3C2=O)CCCCC4)cc1
reading.unit: %
reduction in MDA brain content: 54.7
//
smiles.data: O=C1CN(c2ccc(O)cc2)C(=O)c2c(sc3c2CCCCC3)O1
reading.unit: %
reduction in MDA brain content: 45.2
//
smiles.data: O=C1CN(c2ccc(Cl)cc2)C(=O)c2c(sc3c2CCCCC3)O1
reading.unit: %
reduction in MDA brain content: 38
//
smiles.data: O=C1CN(c2ccccc2)C(=O)c2c(sc3c2CCCCC3)O1
reading.unit: %
reduction in MDA brain content: 68.4
//
smiles.data: CCOc1ccc(N2CC(=O)Oc3sc4c(c3C2=O)CCCCC4)cc1
reading.unit: %
reduction in MDA brain content: 59
//
smiles.data: COc1ccc(N2CC(=O)Oc3sc4c(c3C2=O)CCCCC4)cc1
reading.unit: %
reduction in MDA brain content: 72.8
//
smiles.data: CCOC(=O)c1c(OC(=O)CCl)sc2c1CCCCC2
reading.unit: %
reduction in MDA brain content: 33.6

====

- Test system: AlCl3-induced AD rat model
- assay: Y-maze SAP test in AlCl3-induced AD rats
- Type: in vivo
// reported increase in SAP% per item

molecule: CCOC(=O)c1c(O)sc2c1CCCCC2 [Compound 2]
reading.unit: %
increase in SAP%: 14.6
//
molecule: O=C1CN(c2ccccc2)C(=O)c2c(sc3c2CCCCC3)O1 [Compound 11]
reading.unit: %
increase in SAP%: 22

====

// reported improvement of TAC levels per item
- Tested on: TAC
- assay: Brain TAC (colorimetric)
- Assay type: in vivo, rat
- test.parameters: AlCl3-induced AD rats
quantity.measured: improvement of TAC levels

molecule: CCOc1ccc(N2CC(=O)Oc3sc4c(c3C2=O)CCCCC4)cc1 [Compound 14]
result: 3.8 times
--
molecule: N#Cc1ccc(N2CC(=O)Oc3sc4c(c3C2=O)CCCCC4)cc1 [Compound 13]
result: ~3.4 times
--
molecule: O=C1CN(c2ccccc2)C(=O)c2c(sc3c2CCCCC3)O1 [Compound 11]
result: 4 times
--
molecule: CCOC(=O)c1c(O)sc2c1CCCCC2 [Compound 2]
result: 1.9 times

====

// reported TLR4 per item
- Tested on: TLR4
- assay: TLR4 mRNA expression (RT-qPCR)
- Assay type: in vivo, rat
- test.parameters: mRNA expression level; AlCl3-induced AD rats; mean ± SE, n = 6
quantity.measured: TLR4

smiles.data: O=C1CN(c2ccccc2)C(=O)c2c(sc3c2CCCCC3)O1
quantity.measured: TLR4
result: 5.56 ± 0.1 ^abc

smiles.data: O=C1CN(c2ccc(Cl)cc2)C(=O)c2c(sc3c2CCCCC3)O1
quantity.measured: TLR4
result: 2.75 ± 0.06 ^abc

smiles.data: CCOC(=O)c1c(O)sc2c1CCCCC2
quantity.measured: TLR4
result: 7.66 ± 0.12 ^abc

====

- tested.system: BChE (Homo sapiens, UniProt P06276)
- Construct: purchased Invitrogen EIABCHEF
- Sequence (P06276 29-602): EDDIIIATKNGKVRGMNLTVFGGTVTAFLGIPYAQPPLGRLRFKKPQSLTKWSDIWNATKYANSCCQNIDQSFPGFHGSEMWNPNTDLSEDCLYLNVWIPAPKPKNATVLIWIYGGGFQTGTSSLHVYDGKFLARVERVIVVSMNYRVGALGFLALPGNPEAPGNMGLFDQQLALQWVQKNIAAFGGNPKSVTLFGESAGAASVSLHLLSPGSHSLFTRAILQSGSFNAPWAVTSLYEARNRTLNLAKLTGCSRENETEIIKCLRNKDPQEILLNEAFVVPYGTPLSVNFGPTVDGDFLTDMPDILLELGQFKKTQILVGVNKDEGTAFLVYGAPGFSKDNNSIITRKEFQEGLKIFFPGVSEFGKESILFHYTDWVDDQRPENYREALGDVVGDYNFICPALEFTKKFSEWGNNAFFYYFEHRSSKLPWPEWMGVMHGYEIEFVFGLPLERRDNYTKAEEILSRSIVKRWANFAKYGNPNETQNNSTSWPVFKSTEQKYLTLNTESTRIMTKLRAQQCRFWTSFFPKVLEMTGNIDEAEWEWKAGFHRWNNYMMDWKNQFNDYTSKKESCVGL
- assay: biochemical
- test.parameters: fluorescence kit, triplicate
// reported IC50 per item
quantity.measured: IC50 (µM)

smiles.data: O=C1CN(c2ccc(O)cc2)C(=O)c2c(sc3c2CCCCC3)O1
measured.number: 0.7
//
smiles.data: CCOc1ccc(N2CC(=O)Oc3sc4c(c3C2=O)CCCCC4)cc1
measured.number: 2.93
//
smiles.data: O=C1CN(c2ccccc2)C(=O)c2c(sc3c2CCCCC3)O1
measured.number: 13.8
//
smiles.data: N#Cc1ccc(N2CC(=O)Oc3sc4c(c3C2=O)CCCCC4)cc1
measured.number: 4.22
//
smiles.data: CCOC(=O)c1c(O)sc2c1CCCCC2
measured.number: 5.72
//
smiles.data: CCOC(=O)c1c(OC(=O)CCl)sc2c1CCCCC2
measured.number: 56.2
//
smiles.data: O=C1CN(c2ccc(Cl)cc2)C(=O)c2c(sc3c2CCCCC3)O1
measured.number: 65.9
//
smiles.data: COc1ccc(N2CC(=O)Oc3sc4c(c3C2=O)CCCCC4)cc1
measured.number: 5.23
